Test: Total clearance in Sprague-Dawley rat at 0.1 mg/kg, iv or 1 mg/kg, po administered as cassette dose by LC/MS/MS analysis
Assay type: ADME, organism-based
Settings: in vivo
Property Label: clearance (L/h/kg)

[
  {
    "Given Smiles": "Cc1cc(-c2sc(Cc3cc(F)cc(C(F)(F)F)c3)nc2C)ccc1C(N)=O",
    "Property Label": "clearance",
    "Quantitative Result": 2.37
  },
  {
    "Given Smiles": "Cc1cc(-n2nc(Cc3cc(F)cc(C(F)(F)F)c3)nc2C)ccc1C(N)=O",
    "Property Label": "clearance",
    "Quantitative Result": 1.41
  }
]

1: Cc1cc(-n2cc(Cc3cc(F)cc(C(F)(F)F)c3)nc2C)ccc1C(N)=O
2: Cc1cc(-c2cc(Cc3cc(F)cc(C(F)(F)F)c3)nn2C)ccc1C(N)=O
## Input Kindly identify the item with the lower clearance figure among these two: 1 and 2 // caller expects the label of the chosen entry
## Output 1
